# target.of.assay: T1, CEACAM1 (Sino Biological) (human, UniProt P13688 35-428, limits assumed)
# T1 construct: may be the same as CEACAM1-HIS; also called hCEACAM1; biotinylated soluble CEACAM1
# T1 sequence: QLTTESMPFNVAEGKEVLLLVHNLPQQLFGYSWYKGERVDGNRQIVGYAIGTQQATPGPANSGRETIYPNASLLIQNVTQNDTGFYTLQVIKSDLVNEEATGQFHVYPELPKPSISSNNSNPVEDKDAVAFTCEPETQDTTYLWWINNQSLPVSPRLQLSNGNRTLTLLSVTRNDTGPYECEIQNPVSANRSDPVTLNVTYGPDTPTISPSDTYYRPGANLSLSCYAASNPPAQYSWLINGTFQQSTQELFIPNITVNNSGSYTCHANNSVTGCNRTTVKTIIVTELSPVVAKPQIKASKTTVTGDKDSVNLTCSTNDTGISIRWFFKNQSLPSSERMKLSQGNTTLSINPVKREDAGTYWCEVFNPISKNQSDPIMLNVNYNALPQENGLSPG
# assay.explanation: SPR single-cycle
pKd: −log10 of the molar value.
# cutoff 7 applies to pKd; >= gives true (1), < gives false (0)

Has He9/L3 (antibody, IgG4, V domains shown, IgG4 S241P, kappa; also called He9 / 3) VH: EVQLLESGGGLVQPGGSLRLSCAASGFSFSDYYLYWVRQAPGKGLEWVATISVGGGQTSYADSVKGRFTISRDNSKNTLYLQMNSLRAEDTAMYYCARAMYYGPAWFAYWGQGTLVTVSS VL: DIVMTQSPDSLAVSLGERATINCKSSQSLLNSANQKNYLAWYQQKPGQPPKLLIYFASTRESGVPDRFSGSGSGTDFTLTISSLQAEDVAVYYCQSHFPFPFTFGGGTKVEIK a recorded pKd greater than or equal to 7?
true (1)

Input He9/L5 (antibody, IgG4, V domains shown, IgG4 S241P, kappa) VH: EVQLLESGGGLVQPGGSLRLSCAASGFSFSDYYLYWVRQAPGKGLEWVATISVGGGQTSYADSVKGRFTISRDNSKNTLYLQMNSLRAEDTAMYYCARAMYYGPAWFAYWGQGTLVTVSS VL: DIVMTQSPDSLAVSLGERATINCKSSQSLLNSANQKNYLAWYQQKPGQPPKLLIYFASTRESGVPDRFSGSGSGTDFTLTISSLQAEDVAVYYCQSHYPFAFTFGGGTKVEIK
true (1)

Input He9/L19 (antibody, IgG4, V domains shown, IgG4 S241P, kappa) VH: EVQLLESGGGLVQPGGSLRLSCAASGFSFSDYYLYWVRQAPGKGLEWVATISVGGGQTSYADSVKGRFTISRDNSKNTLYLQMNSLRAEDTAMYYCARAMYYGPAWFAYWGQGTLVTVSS VL: DIVMTQSPDSLAVSLGERATINCKSSQSLLNSANQKNYLAWYQQKPGQPPKLLIYFASTRESGVPDRFSGSGSGTDFTLTISSLQAEDVAVYYCQSHIYPNFTFGGGTKVEIK
false (0)

Input He17/L4 #1 (antibody, IgG4, V domains shown, IgG4 S241P, kappa) VH: EVQLLESGGGLVQPGGSLRLSCAASGFSFSDYYLYWVRQAPGKGLEWVATISVGGGQTSYADSVKGRFTISRDNSKNTLYLQMNSLRAEDTAMYYCTRARTYGPAWFAYWGQGTLVTVSS VL: DIVMTQSPDSLAVSLGERATINCKSSQSLLNSANQKNYLAWYQQKPGQPPKLLIYFASTRESGVPDRFSGSGSGTDFTLTISSLQAEDVAVYYCQSHFPYYYTFGGGTKVEIK
false (0)
